The values you see were collected from patent US11873298B2.

tested-target: SCD5 (Homo sapiens)
Construct: host or cells: S. cerevisiae ole1Δ strain (W303 pdr1Δ pdr3Δ background), plasmid pRS316 with TDH3 promoter and CYC1 terminator
Sequence (Q86SK9 1-330): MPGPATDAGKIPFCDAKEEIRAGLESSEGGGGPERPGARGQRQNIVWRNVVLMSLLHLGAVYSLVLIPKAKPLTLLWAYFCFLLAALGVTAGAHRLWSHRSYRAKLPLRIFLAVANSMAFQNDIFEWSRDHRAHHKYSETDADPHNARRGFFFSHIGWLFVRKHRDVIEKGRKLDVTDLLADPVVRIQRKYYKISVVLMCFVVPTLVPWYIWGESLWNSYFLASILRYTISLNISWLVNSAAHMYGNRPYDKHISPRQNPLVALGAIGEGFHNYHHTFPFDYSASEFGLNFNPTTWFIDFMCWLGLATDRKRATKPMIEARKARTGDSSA
assay-info: Growth inhibition of humanized yeast strain expressing SCD5 as sole desaturase
Type: cell-based
condition-description: humanized yeast strain expressing SCD5
outcome-measure: SCD5 % Max Inhibition (%)
All answers are understood in %, so give the number only.

[Q] Lab note: need SCD5 % Max Inhibition with SCD5 (Homo sapiens) for entry CC(C)(C#N)C1CN(c2noc(C3CCN(C(=O)C4CC(=O)N(c5ccccc5)C4)CC3)n2)C1 (centres unmarked) , please look it up.
[A] 83.13

[Q] Lab note: need SCD5 % Max Inhibition with SCD5 (Homo sapiens) for entry Cc1nn(C)c2cc(-c3noc(C4CCN(C(=O)C5CC(=O)N(c6ccccc6)C5)CC4)n3)ncc12 (centres unmarked) , please look it up.
[A] 96.39

[Q] Lab note: need SCD5 % Max Inhibition with SCD5 (Homo sapiens) for entry Cc1nn(C)c2cc(-c3nsc(C4CCN(C(=O)C5CC(=O)N(c6ccccc6)C5)CC4)n3)ccc12 (centres unmarked) , please look it up.
[A] 20.59

[Q] Lab note: need SCD5 % Max Inhibition with SCD5 (Homo sapiens) for entry Cc1nn(C)c2cc(-c3noc(C4CCN(C(=O)[C@H]5CCN(C(=O)c6ccccc6)C5)CC4)n3)ccc12 , please look it up.
[A] 6.02

[Q] Lab note: need SCD5 % Max Inhibition with SCD5 (Homo sapiens) for entry O=C(CN1Cc2ccccc2C1=O)N1CCC(c2nc(-c3ccc4c(c3)COC4)no2)CC1 , please look it up.
[A] 67.37

[Q] Lab note: need SCD5 % Max Inhibition with SCD5 (Homo sapiens) for entry CNC(=O)c1ccc(-c2noc(C3CCN(C(=O)[C@H]4CC(=O)N(c5ccccc5)C4)CC3)n2)cn1 , please look it up.
[A] 39.69

[Q] Lab note: need SCD5 % Max Inhibition with SCD5 (Homo sapiens) for entry Cc1nn(C)c2cc(-c3noc(C4CCN(C(=O)c5ccccc5Cl)CC4)n3)ccc12 , please look it up.
[A] 7.52

[Q] Lab note: need SCD5 % Max Inhibition with SCD5 (Homo sapiens) for entry CCOc1ncc(-c2noc(C3CCN(C(=O)CNC(=O)c4ccccc4)CC3)n2)cc1OC , please look it up.
[A] 94.34
